Where do the numbers come from? From ChEMBL document CHEMBL2407089.

System: Radical scavenging activity
Assay: Antioxidant activity assessed as DPPH free radical scavenging activity after 30 mins by spectrophotometry
Format: functional
ENDPOINT: EC50 (µg/mL)

Reported EC50 for `Cc1ccc(C(=O)c2cc3c(-c4cccnc4)nn(-c4ccccc4)c3[nH]c2=O)cc1` was 54.76

[A] Clc1ccc(-c2cc3ncc4c(-c5cccnc5)nn(-c5ccccc5)c4n3n2)cc1
[B] O=C1O[C@H]([C@@H](O)CO)C(O)=C1O
[C] O=C(c1cccnc1)c1cc2c(-c3cccnc3)nn(-c3ccccc3)c2[nH]c1=O
Let's sort these by EC50, smallest first. Go ahead? Reply: labels, ordered per the request.
B, C, A
